List of GI50 values.
Test system: 786-0
Test: NCI tumour cell line growth inhibition, 48 h
The source made the active and inactive calls. Cut-off read from the data, not from the text of the source: active = GI50 up to about 1.1 µM and inactive = higher.

Determine its reported GI50: O=[N+]([O-])c1ccc2nc(/C(=N/Nc3ccccc3)C(O)c3ccc(Cl)cc3Cl)c(O)nc2c1 (stereo not given) > 100 µM (inactive)

---

Tested on: MDA-N
Experiment: NCI tumour cell line growth inhibition, 48 h
Active and inactive are the calls of the source. No stated cut-off is given here; in the data, active = GI50 up to about 1.1 µM and inactive = higher.
The reply should be one of these categories: active, inactive

Examples from the recorded data:
Can you look up the reported call for Cc1ncc([N+](=O)[O-])n1CCNC(=O)CCCn1cnc([N+](=O)[O-])n1 for me? inactive

Can you look up the reported call for COC(=O)[C@H](CNC(=O)/C=C/c1ccc(OC(C)=O)c(OC(C)=O)c1)NC(=O)/C=C/c1ccc(OC(C)=O)c(OC(C)=O)c1 for me? inactive

Can you look up the reported call for COC(=O)CCN1CCN(CCO)CC1C (configuration not stated) for me? inactive

Can you look up the reported call for CCN(CC)CCCNc1nncc2cc3c([nH]c4ccccc43)c(C)c12 for me? inactive

Can you look up the reported call for CC1(C)COC2=C(C1)C(=O)c1ccccc1C2=O for me? active

Further cases:
Can you look up the reported call for COC(=O)C(/C(=N/NC(=O)c1ccncc1)C(=O)Nc1ccccc1OC)c1nc2ccc(Cl)cc2nc1O (configuration not stated) for me? inactive

Can you look up the reported call for COc1ccc(N[S+]([O-])CCc2ccccc2)cc1 (configuration not stated) for me? inactive

Can you look up the reported call for COC(=O)/N=[N+](\[O-])C(c1ccc(OC)cc1)C1CCCCC1 (configuration not stated) for me? inactive
